Hey, just so you know, these numbers are from PubChem BioAssay (NCI).

# Test system: OVCAR-8 ovarian
# protocol-description: NCI-60 one-dose screen, 48 h
# condition-set: 100 µM
The panel holds about 83,000 compounds, 20% with a hit somewhere; the sample as a whole holds those more often. Active and inactive are the calls of the source. The calls were made as follows: active = growth percent below 10; inactive = the rest.
Outcome codes: active, inactive

sample-smiles: CC(=O)/C=C/c1ccc(N(C)Cc2ccc(C(C)(C)C)cc2)cc1
classification: active
--
sample-smiles: COc1ccc(C(=O)/C=C/c2ccc(OCc3ccc(Cl)cc3)cc2)cc1OC
classification: active
--
sample-smiles: CC(=O)/C=C/c1ccc(OCc2ccc(C(C)(C)C)cc2)cc1
classification: inactive
--
sample-smiles: COc1ccc(C(=O)/C=C/c2ccc(OCc3cccc(C(F)(F)F)c3)c(OC)c2)cc1OC
classification: active
--
sample-smiles: CC(=O)/C=C/c1ccc(N(CCO)Cc2ccc(C(C)(C)C)cc2)cc1
classification: active
--
sample-smiles: CC(=O)/C=C/c1ccc(OCc2ccc(Cl)cc2)cc1
classification: inactive
--
sample-smiles: CCN(Cc1ccccc1)c1ccc(/C=C2\COc3ccccc3C2=O)cc1
classification: inactive

* * *

Collected growth values appear next to each entry.
# Test system: SW-620 colon
# protocol-description: NCI-60 one-dose screen, 48 h (100 = growth as untreated, 0 = no growth, -100 = all killed)
# condition-set: 100 µM
This is part of a sample that, as a whole, favours compounds with a hit. Of some 83,000 tested, about 20% had one in any assay.
attribute-measured: growth (%)

sample-smiles: COc1ccc(C(=O)/C=C/c2ccc(OCc3cccc(C(F)(F)F)c3)c(OC)c2)cc1OC
tested-on: SW-620 colon
observed-measurement: 6.75
--
sample-smiles: CC(=O)/C=C/c1ccc(N(CCO)Cc2ccc(C(C)(C)C)cc2)cc1
tested-on: SW-620 colon
observed-measurement: -91.8
--
sample-smiles: CC(=O)/C=C/c1ccc(OCc2ccc(C(C)(C)C)cc2)cc1
tested-on: SW-620 colon
observed-measurement: 38.6
--
sample-smiles: CC(=O)/C=C/c1ccc(N(C)Cc2ccc(C(C)(C)C)cc2)cc1
tested-on: SW-620 colon
observed-measurement: -53.5
--
sample-smiles: O=C(/C=C/c1cccc(Oc2ccc(Cl)cc2)c1)c1ccccc1
tested-on: SW-620 colon
observed-measurement: -69.7
--
sample-smiles: CC(=O)/C=C/c1ccc(OCc2ccc(Cl)cc2)cc1
tested-on: SW-620 colon
observed-measurement: 70.4
--
sample-smiles: COc1ccc(C(=O)/C=C/c2ccc(OCc3ccc(Cl)cc3)cc2)cc1OC
tested-on: SW-620 colon
observed-measurement: 9.15
--
sample-smiles: CCN(Cc1ccccc1)c1ccc(/C=C2\COc3ccccc3C2=O)cc1
tested-on: SW-620 colon
observed-measurement: 28.1

* * *

# System: MDA-MB-435 melanoma
# protocol-description: NCI-60 one-dose screen, 48 h
# condition-set: 10 µM unless noted
This is part of a sample that, as a whole, favours compounds with a hit. Of some 83,000 tested, about 20% had one in any assay. Active and inactive are the calls of the source. The calls were made as follows: active = growth percent below 10; inactive = the rest.
Outcome codes: active, inactive

compound: C=C1C(=O)O[C@H]2[C@H]1CC/C(COC(=O)NCc1ccc(Cn3c(=O)sn(CCCI)c3=O)cc1)=C\CC[C@@]1(C)O[C@@H]21
classification: inactive
//
compound: Cc1ccc(-c2nc3nc(-c4ccc(Cl)cc4)nc(N4CCCNCC4)c3o2)cc1
classification: active
//
compound: Nc1nc(N)c2c(n1)NC(c1ccc(Cl)cc1)CC(c1cccc(Nc3ccncc3)c1)=N2 (centres undefined)
classification: inactive
//
compound: N#Cc1ccccc1OCC(=O)Nc1nc2c(s1)COc1ccccc1-2
classification: inactive
//
compound: CCN(CC)CCOc1ccc(/C(=C(\Cl)c2ccccc2)c2ccccc2)cc1
classification: active
//
compound: CCCCC#Cc1c(/C=C(\CCCC)SCC)n(C)c(=O)[nH]c1=O
classification: inactive
//
compound: Cc1nc2sc(C(=O)Nc3cccc4ccccc34)c(N)c2cc1C(=O)/C=C/c1ccccc1
classification: active
//
compound: Cc1ccc(/C=C2\COc3ccc(O)c(O)c3C2=O)cc1
classification: active
//
compound: CC/C=C\C/C=C\C[C@H](O)C/C=C1/C(=O)C=C[C@@H]1C/C=C\CCCC(=O)OC
classification: active

* * *

# Test system: U251 CNS
# protocol-description: NCI-60 one-dose screen, 48 h (100 = growth as untreated, 0 = no growth, -100 = all killed)
# condition-set: 10 µM unless noted
About 83,000 compounds went through this panel and 20% of them were active in at least one assay; those are over-represented in the sample as a whole.
Class (required): determined from growth; valid ranges are low = under 10%, middle = from 10% up to 90%, high = 90% and over

compound: Cc1ccc(-c2nc3nc(-c4ccc(Br)cc4)nc(N4CCCNCC4)c3o2)cc1
classification: low
//
compound: CCN(CC)CC#CCOC(=O)[C@]1(C)CCC[C@]2(C)c3ccc(C(C)C)cc3CC[C@@H]12
classification: middle
//
compound: Nc1nc(Nc2cccnc2)sc1C(=O)c1ccccc1F
classification: middle
//
compound: COc1ccc(/C=C/C(=O)c2cc3c(N)c(C(=O)Nc4ccccc4)sc3nc2C)cc1
classification: low
//
compound: Clc1nccc2c(-c3csc(-c4c[nH]c5ccc(Br)cc45)n3)c[nH]c12
classification: low
//
compound: Cn1cc(-c2csc(-c3c[nH]c4ccc(F)cc34)n2)c2cnccc21
classification: low
//
compound: CC/C=C\C/C=C\C[C@H](O)C/C=C1/C(=O)C=C[C@@H]1C/C=C\CCCC(=O)OC
classification: low
//
compound: Nc1nc(N)c2c(n1)NC(c1cccc(Nc3ccnc4cc(C(F)(F)F)ccc34)c1)CC(c1ccc(F)cc1)=N2 (stereo not given)
classification: middle
//
compound: O=C(Nc1ccccc1C(=O)N/N=C(\c1ccccc1)c1ccccn1)c1ccccc1
classification: middle
//
compound: Cc1ccc(NC(=O)N/C(N)=N/c2nc(=O)c3ccccc3s2)cc1
classification: high
//
compound: COc1ccc(/C=N/NC(=O)CN2CCN(c3cc4c(cc3F)c(=O)c(C(=O)O)cn4C3CC3)CC2)cc1O
classification: high
//
compound: CCCc1cc(C(N)=S)ccn1
classification: high
//
compound: O=C1OCC2=C1C(c1cccc([N+](=O)[O-])c1)c1cc3c(cc1N2CCO)CCC3 (stereo not given)
classification: middle
//
compound: C[N+]1=C(/C=C\C=C\c2ccccc2)C(C)(C)c2ccccc21
classification: middle
//
compound: COc1ccc(/C=C2\COc3ccc(O)c(O)c3C2=O)c(OC)c1OC
classification: middle
//
compound: Cc1ccc(-c2nc3nc(-c4ccc(Cl)cc4)nc(N4CCCNCC4)c3o2)cc1
classification: low
//
compound: O=C(CN1C(=O)S/C(=C\C(Cl)=C\c2ccccc2)C1=O)NCCCn1ccnc1
classification: middle
//
compound: C=CCOc1ccc(/C=C2\SC(=S)N(CCc3ccc(O)cc3)C2=O)cc1
classification: middle
//
compound: Cc1c(C(C)(C)O)cn2ncnc(Oc3ccc(NC(=O)Nc4ccc(Cl)c(C(F)(F)F)c4)cc3)c12
classification: middle
//
compound: O=C(NNc1ccccc1)c1ncc[nH]1
classification: middle
//
compound: N#Cc1ccccc1-c1ccc(Cn2c(-c3cscn3)nc3c(Cl)cccc32)cc1
classification: middle
//
compound: Cc1ccc2nc3ccccc3c(NCc3ccc(Cl)cc3)c2c1
classification: middle
//
compound: Cc1ccc(C(=O)Nc2nc3c(s2)CN(Cc2ccccc2)CC3)cn1
classification: high
//
compound: COc1ccc(NC(=O)Nc2ccccc2CNc2nc(Nc3ccc(OCCN4CCCC4)cc3)ncc2Cl)cc1
classification: low
//
compound: O=c1ccc2nc(-c3ccccn3)nn(-c3ccccc3)c-2c1
classification: high
//
compound: COC(=O)c1nc(-c2ccc(C)cc2)oc1S(=O)(=O)c1ccc(Cl)cc1
classification: high
//
compound: COc1ccc(Nc2nn3c(SCC(=O)c4ccc(C)cc4)nnc3s2)cc1
classification: high
//
compound: O=C(NCc1cccnc1)/C(=C\c1ccc(Br)cc1)S(=O)(=O)c1ccccc1
classification: low
//
compound: C/C=C(\C)C(=O)N[C@H]1CC[C@]2(C)C3CC[C@@]4(C)C(CC[C@@H]4C(C)N(C)C)C3CCC2[C@H]1OC(C)=O (stereo not given in full)
classification: low
//
compound: O=S(=O)(Nc1ccc(F)cc1)c1ccc(-c2cnc(C3CC3)o2)cc1
classification: middle
//
compound: CCc1c2c(nc3ccc(OCc4ccc(B5OC(C)(C)C(C)(C)O5)cc4)cc13)-c1cc3c(c(=O)n1C2)COC(=O)[C@]3(O)CC
classification: low
//
compound: COc1cc(CNC(=O)CCCC/C=C/C(C)C)ccc1OCc1cn(-c2ccc([N+](=O)[O-])cc2)nn1
classification: middle
//
compound: O=C1C(N2CCOCC2)=C(I)C(=O)c2ncccc21
classification: middle
//
compound: COc1cccc(C2C(C#N)=C(N)Oc3cc(OCCCCCC[P+](c4ccccc4)(c4ccccc4)c4ccccc4)ccc32)c1 (stereo not given)
classification: low
//
compound: O=C(CCN1CCOCC1)Nc1cccc(-n2cc(-c3ccncc3)c(-c3ccc(Cl)c(O)c3)n2)c1
classification: middle
